Source of measurements: patent US11731933B2

Measured NaCl - 60° C. % ext (average) accompanies every entry in the list below.
test: NaCl extraction from 0.4M NaCl water by ASM + Calix[4]Est in chloroform (Example 11); conditions: 60° C.; average molar extraction
Give the number first and the unit second.

Q: Identify NaCl - 60° C. % ext (average) associated with the molecule CCCCCCCCCCCC(=O)Nc1cc(C(F)(F)F)cc(C(F)(F)F)c1
A: 5.8%

---

assay: Log P; assay type: physicochemical; details: Exp
Measured logP accompanies every entry in the list below.
Provide a numeric answer; units are not to be included.

Please review the following examples before continuing.
# mol.smiles, recorded.metric, numeric.readout
records = [
    ("c1ccc2c(c1)OCCOCCOCCOCCO2", "logP", 0.91),
    ("c1ccc2c(c1)OCCOCCOCCOc1ccccc1OCCOCCOCCO2", "logP", 2.11),
]

Q: Identify logP associated with the compound c1ccc2c(c1)OCCOCCOc1ccccc1OCCOCCO2
A: 2.2

---

Test: Solubility in water (UV-visible spectrometry)
Format: physicochemical
Conditions: water; read-out: Solubility in water
Description: The hydrophobicity or solubility of a compound can be measured by standard methods and in particular by UV-visible spectrometry.
recorded.metric: solubility (µM)
Only the number, expressed in µM, is required.

# compound, solubility (µM)
rows = [
    ("OC(c1cccc(C(F)(F)F)c1)c1cccc(C(F)(F)F)c1", 70),
    ("OCc1cc(C(F)(F)F)c(C(F)(F)F)c(C(F)(F)F)c1", 390),
]

Q: Identify solubility associated with the compound CCCC(O)c1cc(C(F)(F)F)cc(C(F)(F)F)c1 (stereo not shown)
A: 480

Q: Identify solubility associated with the compound OCc1cc(C(F)(F)F)cc(C(F)(F)F)c1 [ASM 3, [3,5-Bis(Trifluoromethyl)phenyl]methanol]
A: 2290

---

test: NaCl extraction from 0.2M NaCl water by ASM/CEM composition, ion chromatography of treated water; conditions: ASM: 3TFMPhOH; CEM 0.2M; NaCl 0.2M water
recorded.metric: Extraction rate at 23° C., Cl− (%)
Only the number, expressed in %, is required.

# molecule, numeric.readout
records = [
    ("c1ccc2c(c1)OCCOCCOCCOCCO2 [B15C5]", 12.5),
    ("C1CCC2OCCOCCOC3CCCCC3OCCOCCOC2C1 (stereo not drawn) [DC18C6]", 30.3),
    ("C1CCC2OCCOCCOCCOCCOC2C1 (stereo not drawn) [C15C5]", 30.7),
    ("c1ccc2c(c1)OCCOCCOCCOc1ccccc1OCCOCCO2 [DB21C7]", 20.7),
]

Q: Identify Extraction rate at 23° C., Cl− associated with the molecule c1ccc2c(c1)OCCOCCOCCOc1ccccc1OCCOCCOCCO2 [DB24C8]
A: 37.1

Q: Identify Extraction rate at 23° C., Cl− associated with the molecule c1ccc2c(c1)OCCOCCOc1ccccc1OCCOCCO2 [DB18C6]
A: 38.8

---

test: Solubility in water (UV-visible spectrometry); assay type: physicochemical
Criterion: Solubility in water strictly less than 3000 µM. Met: Criterion met. Not met: Criterion not met.

Below, 4 compounds whose answers are already recorded.
# compound, class
data = [
    ("c1ccc2c(c1)OCCOCCOc1ccccc1OCCOCCO2", "Criterion met"),
    ("c1ccc2c(c1)OCCN1CCOCCOCCN(CCO2)CCOc2ccccc2OCC1 [DB[2.2.2]]", "Criterion met"),
    ("C1CCC2OCCOCCOC3CCCCC3OCCOCCOC2C1 (stereo not drawn)", "Criterion not met"),
    ("OCc1cccc(C(F)(F)C(F)(F)C(F)(F)C(F)(F)F)c1 [ASM 5, [3-(Perfluorobutyl)phenyl]methanol]", "Criterion met"),
]

Please look at the following compound next.
Q: Solubility in water under 3000 µM? Item: OCc1cccc(C(F)(F)F)c1 [ASM 2, [3-(Trifluoromethyl)phenyl]methanol]
A: Criterion not met
